System: SK-MEL-2 multi-cell spheroids, viability
protocol notes: Anticancer human tumor SK-MEL-2 cell line growth inhibition [TAK];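 note: spheroids exposed to drugs for seven days before readout; percent of DMSO vehicle control luminescence so 100% = untreated viability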
study conditions: second compound 3 µM; first compound 1 µM; stronger effect = lower value
I'd be grateful if you could share measured viability, T/C for these entries.

CCCS(=O)(=O)Nc1ccc(F)c(C(=O)c2c[nH]c3ncc(-c4ccc(Cl)cc4)cc23)c1F + CC(C)NCC(C(=O)N1CCN(c2ncnc3c2C(C)CC3O)CC1)c1ccc(Cl)cc1    110%
CC(C)(C)c1nc(-c2cccc(NS(=O)(=O)c3c(F)cccc3F)c2F)c(-c2ccnc(N)n2)s1 + CC(C)NCC(C(=O)N1CCN(c2ncnc3c2C(C)CC3O)CC1)c1ccc(Cl)cc1    15.7%
Cc1nc(NC(=O)N2CCCC2C(N)=O)sc1-c1ccnc(C(C)(C)C(F)(F)F)c1 (centres undefined) + CC(C)NCC(C(=O)N1CCN(c2ncnc3c2C(C)CC3O)CC1)c1ccc(Cl)cc1    58.8%

Next item in the queue.
So, COc1c(OCCCN2CCOCC2)ccc2c3n(c(=NC(=O)c4cnc(N)nc4)nc12)CCN3 + CC(C)NCC(C(=O)N1CCN(c2ncnc3c2C(C)CC3O)CC1)c1ccc(Cl)cc1 ? Its viability, T/C was 19.5%
